# Test system: monocytic THP1 cells infected with HIV VSV-G pseudotyped GFP-NEF reporter virus
# test details: cells
# Assay type: cell-based
# recorded conditions: Human immunodeficiency virus 1, THP-1, 24 h
measured endpoint: pEC50
Recall that pEC50 is obtained by taking minus log10 of the concentration measured in molar.

Past entries and their recorded results:
molecule: Cc1cc(/C=C/C#N)cc(C)c1Oc1nc(NC23CC(C#N)(C2)C3)nc2c1C1(C)OCC(C)(C)CN1C2=O (stereo not shown) [Compound 197]
readout value: 7.01

molecule: Cc1cc(/C=C/C#N)cc(C)c1Oc1nc(NC23CC(C#N)(C2)C3)nc2nn(C)cc12 [Compound 120]
readout value: 7.67

molecule: Cc1cc(/C=C/C#N)cc(C)c1Oc1nc(NC23CC(C#N)(C2)C3)nc2c1ncn2CC1(C#N)CC1 [Compound 45]
readout value: 7.28

Query Cc1cc(/C=C/C#N)cc(C)c1Oc1nc(NC23CC(C#N)(C2)C3)nc2c1C(OCC(F)F)NC2=O (stereo not shown) [Compound 289] yields pEC50 of 7.28

The molecule identified as CCn1cc(N2C(=O)c3nc(NC45CC(C#N)(C4)C5)nc(Oc4c(C)cc(/C=C/C#N)cc4C)c3C2C)cn1 (stereo not shown) [Example 218] registered its pEC50 at 7.33

For this molecule ( Cc1cc(/C=C/C#N)cc(C)c1Oc1nc(NC23CC(C#N)(C2)C3)nc2c1CNC2 [Compound 135] ), measured pEC50 is 6.56

Lab note: measured pEC50 of Cc1cc(/C=C/C#N)c(C)c(C)c1Oc1nc(NC23CC(C#N)(C2)C3)nc2nn(C)cc12 [Compound 8] was 7.35

* * *

# System: monocytic THP1 cells infected with HIV VSV-G pseudotyped GFP-NEF reporter virus
# test details: cells
# Assay type: cell-based
# recorded conditions: Human immunodeficiency virus 1, THP-1, 24 h
// values below are reported pEC50
Expect pEC50 as a plain number equal to -log10 of the molar concentration.

Examples with answers:
compound: Cc1cc(/C=C/C#N)cc(C)c1Oc1nc(NC23CC(C#N)(C2)C3)nc2c1C1(C)OCC3(CCOCC3)CN1C2=O (centres unmarked) [Example 200]
pEC50: 6.76

compound: COC(F)(F)C1NC(=O)c2nc(NC34CC(C#N)(C3)C4)nc(Oc3c(C)cc(/C=C/C#N)cc3C)c21 (centres unmarked) [Example 255]
pEC50: 7.28

compound: Cc1cc(/C=C/C#N)cc(C)c1Oc1nc(NC23CC(C#N)(C2)C3)nc2[nH]c(=O)n(C(F)F)c12 [Compound 190]
pEC50: 6.48

compound: COCCN1C(=O)c2nc(NC34CC(C#N)(C3)C4)nc(Oc3c(C)cc(/C=C/C#N)cc3C)c2C1C (centres unmarked) [Example 203]
pEC50: 7.56

compound: Cc1cc(/C=C/C#N)cc(C)c1Oc1nc(NC23CC(C#N)(C2)C3)nc2nn(C)c(Cl)c12 (single isomer, unassigned) [Compound 95]
pEC50: 7.51

compound: Cc1cc(/C=C/C#N)cc(C)c1Oc1nc(NC23CC(C#N)(C2)C3)nc2nn(C)c(I)c12 [Compound 87]
pEC50: 7.60

Query compound follows.
The measured pEC50 associated with Cc1cc(/C=C/C#N)cc(C)c1Oc1nc(NC23CC(C#N)(C2)C3)nc2c1[C@@H](C)N(C1CC1)C2=O [Compound 180] reads 7.03
